- Assayed Target: T1, Pellino 2 FHA (PELI2 residues 15-275) (human, UniProt Q9HAT8 15-275)
- T1 construct: Cloned into pGEX-6P1; also called PELI2 (15–273); N-terminal PELI2 fragment; source: E. coli BL21 (DE3), purified (Glutathione Sepharose, 3C cleavage, gel filtration); not shown: GST, N-terminal, cleaved
- T1 sequence (looked up): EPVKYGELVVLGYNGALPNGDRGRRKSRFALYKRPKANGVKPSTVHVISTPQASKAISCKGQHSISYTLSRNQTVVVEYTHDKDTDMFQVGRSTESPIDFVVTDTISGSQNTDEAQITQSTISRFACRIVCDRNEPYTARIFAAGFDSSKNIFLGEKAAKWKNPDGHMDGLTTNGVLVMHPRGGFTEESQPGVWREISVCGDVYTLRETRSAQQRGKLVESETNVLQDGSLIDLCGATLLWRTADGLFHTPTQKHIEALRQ
- Measurement Notes: ITC; peptide in the syringe (typically 160 μM), protein in the cell (16 μM); 25 mM HEPES pH 7.0, 200 mM NaCl, 1 mM TCEP; single-site binding model
- Measurement Parameters: both partners purified
Square brackets hold non-standard residues; d marks the D form. pT = C[C@@H](OP(=O)(O)O)[C@H](N)C(=O)O
Listed binders paired with reported stoichiometry N
// response body must contain only the number

Ac-AYEDSE[pT]QPFD-NH2 (SMILES CC(=O)N[C@@H](C)C(=O)N[C@@H](Cc1ccc(O)cc1)C(=O)N[C@@H](CCC(=O)O)C(=O)N[C@@H](CC(=O)O)C(=O)N[C@@H](CO)C(=O)N[C@@H](CCC(=O)O)C(=O)N[C@H](C(=O)N[C@@H](CCC(N)=O)C(=O)N1CCC[C@H]1C(=O)N[C@@H](Cc1ccccc1)C(=O)N[C@@H](CC(=O)O)C(N)=O)[C@@H](C)OP(=O)(O)O, two N-terminal residues that are not the MDC1 residues at this place; human MDC1, stretch around T765; Natural stretch with two added N-terminal residues (AY); The crystallisation methods name only 'the MDC1-pT765 phosphopeptide'; also called MDC1-pT765 (Site 4) phosphopeptide; MDC1 p765 peptide; source: synthetic peptide) [MDC1-pT765 phosphopeptide for ITC and crystallisation (AYEDSEpTQPFD)] ... 0.69

Please examine the following record next.
Value of stoichiometry N reported for the binder Ac-AYEVLA[pT]QPFC-NH2 (SMILES CC(=O)N[C@@H](C)C(=O)N[C@@H](Cc1ccc(O)cc1)C(=O)N[C@@H](CCC(=O)O)C(=O)N[C@H](C(=O)N[C@@H](CC(C)C)C(=O)N[C@@H](C)C(=O)N[C@H](C(=O)N[C@@H](CCC(N)=O)C(=O)N1CCC[C@H]1C(=O)N[C@@H](Cc1ccccc1)C(=O)N[C@@H](CS)C(N)=O)[C@@H](C)OP(=O)(O)O)C(C)C, two N-terminal residues that are not the MDC1 residues at this place; human MDC1, stretch around T752; Natural stretch with two added N-terminal residues (AY); source: synthetic peptide) [MDC1-pT752 phosphopeptide for ITC (AYEVLApTQPFC)] is 0.69
